Tested on: NCI-H226 lung
Test: NCI-60 one-dose screen, 48 h
Conditions: 10 µM
The panel holds about 83,000 compounds, 20% with a hit somewhere; the sample as a whole holds those more often. Calls of active or inactive are those of the source. The calls were made as follows: active = growth percent below 10; inactive = the rest.
Outcome codes: active, inactive

{"structureString": "CCC[Se]C(=O)c1ccc(C(=O)[Se]CCC)s1", "qualitativeLabel": "active"}
{"structureString": "Cc1ccc2[nH]c(=S)n(-c3ccc(F)cc3)c(=O)c2c1", "qualitativeLabel": "inactive"}
{"structureString": "O=C(/C=C/c1ccc(Cl)cc1)c1nc2ccccc2n1Cc1ccc(Br)cc1", "qualitativeLabel": "inactive"}

* * *

Entries and their growth values follow.
System: HL-60(TB) leukemia
Test: NCI-60 one-dose screen, 48 h (100 = growth as untreated, 0 = no growth, -100 = all killed)
Conditions: 10 µM unless noted
About 83,000 compounds went through this panel and 20% of them were active in at least one assay; those are over-represented in the sample as a whole. Activity calls are given as the source filed them. The calls were made as follows: active = growth percent below 10; inactive = the rest.
measuredParameter: growth

{"compound": "Nc1nc(-c2ccccc2)cs1", "measuredParameter": "growth", "readoutValue": "18.9% (inactive)"}
{"compound": "Cc1ccc2nc3c(nc2c1)c1cc(I)ccc1n3CCN(C)C", "measuredParameter": "growth", "readoutValue": "13.7% (inactive)"}
{"compound": "O=C(CSc1nc2sc3c(c2c(=O)n1-c1ccc(Cl)cc1)CCCC3)NNC(=O)c1ccc(F)cc1", "measuredParameter": "growth", "readoutValue": "109% (inactive)"}
{"compound": "COc1ccc(NC(=O)Cn2c3c(sc2=O)[C@H]2[C@@H](O)[C@@H](O)[C@H](O)[C@@H]2CS3)cc1", "measuredParameter": "growth", "readoutValue": "98.1% (inactive)"}
{"compound": "Nc1cc(-c2cccc(C(=O)NCc3ccc4c(c3)OCO4)c2)ccn1", "measuredParameter": "growth", "readoutValue": "98.1% (inactive)"}
{"compound": "CC(=O)Nc1ccc(-c2cn(-c3cccc(C(=O)Nc4cc(CN5CCOCC5)cc(C(F)(F)F)c4)c3)nn2)cn1", "measuredParameter": "growth", "readoutValue": "-54.3% (active)"}
{"compound": "O=C(NNc1ccccc1)n1c(=O)c2ccccc2c(=O)n1-c1ccccc1", "measuredParameter": "growth", "readoutValue": "82.7% (inactive)"}
{"compound": "COc1c2c(cc3c1C(CCc1ccccc1)N(C)CC3)OCO2 (stereo not given)", "measuredParameter": "growth", "readoutValue": "-28.3% (active)"}
{"compound": "COc1c(F)ccc(C(=O)Nc2ccc3nc(NC(=O)C4CCCN(S(=O)(=O)c5ccc(Br)c(F)c5)C4)sc3c2)c1F (stereo not given)", "measuredParameter": "growth", "readoutValue": "88.8% (inactive)"}
{"compound": "CCOC(=O)c1c(CSc2ccccc2)n(C)c2cc(CN(C)C)c(O)c(CN(C)C)c12", "measuredParameter": "growth", "readoutValue": "52.2% (inactive)"}

* * *

Tested on: SW-620 colon
Test: NCI-60 one-dose screen, 48 h (100 = growth as untreated, 0 = no growth, -100 = all killed)
Conditions: 10 µM
The panel holds about 83,000 compounds, 20% with a hit somewhere; the sample as a whole holds those more often.

{"compound": "CC12OOC(C)(OO1)C2CCC(=O)NCCNc1ccnc2cc(Cl)ccc12 (configuration not stated)", "unitsOfMeasure": "%", "growth": 80.6}
{"compound": "C#CC[Se]C(=O)c1ccc(C(=O)[Se]CC#C)s1", "unitsOfMeasure": "%", "growth": 98.2}
{"compound": "COCCOCCOCCOc1ccc(-n2cc(CCCN(CCNc3ccnc4cc(Cl)ccc34)C(=O)CCC(=O)O[C@@H]3O[C@@H]4OC5(C)CC[C@H]6[C@H](C)CC[C@@H]([C@H]3C)[C@@]46OO5)nn2)cc1", "unitsOfMeasure": "%", "growth": 30}
{"compound": "COC(=O)C[C@](O)(CCCC(C)C)C(=O)O[C@H]1C(OC)=C[C@@]23CCCN2CCc2cc4c(cc2[C@@H]13)OCO4", "unitsOfMeasure": "%", "growth": -10.5}
{"compound": "CC1=C(C=O)C2=C(C)C3(CC3)[C@@](C)(O)C(=O)C2=C1", "unitsOfMeasure": "%", "growth": -15.8}
{"compound": "C=CCN=C([Se])NC(=O)c1ccc2c(c1)OCO2", "unitsOfMeasure": "%", "growth": 111}
{"compound": "COP(=O)(CC(F)(F)C(F)(F)F)OC", "unitsOfMeasure": "%", "growth": -15.9}
{"compound": "COC(=O)C[C@](O)(CCC(C)C)C(=O)O[C@@H]1C(OC)=C[C@]23CCCN2CCc2cc4c(cc2[C@H]13)OCO4", "unitsOfMeasure": "%", "growth": -7.29}
{"compound": "C[C@H]1[C@H](OC(=O)CCC(=O)N(CCCc2cn(-c3ccc(CN4CCOCC4)cc3)nn2)CCNc2ccnc3cc(Cl)ccc23)O[C@@H]2OC3(C)CC[C@H]4[C@H](C)CC[C@@H]1[C@@]24OO3", "unitsOfMeasure": "%", "growth": 25.5}
{"compound": "CC[C@]12C=CCN3CC[C@@]4(c5ccc(OC)cc5N(C)[C@H]4[C@@](O)(C(=O)OC)[C@@H]1OC(=O)CCCC[P+](c1ccc(OC)cc1)(c1ccc(OC)cc1)c1ccc(OC)cc1)[C@@H]32", "unitsOfMeasure": "%", "growth": -88.7}
{"compound": "CCOP(=O)(CC(F)(F)C(F)(F)F)OCC", "unitsOfMeasure": "%", "growth": -8.33}
{"compound": "CC[C@]12C=CCN3CC[C@@]4(c5ccc(OC)cc5N(C)[C@H]4[C@@](O)(C(=O)OC)[C@@H]1OC(=O)CCCC[P+](C1CCCCC1)(C1CCCCC1)C1CCCCC1)[C@@H]32", "unitsOfMeasure": "%", "growth": 2.08}
